Record set: pKi | Cannabinoid receptor 1 (Rattus norvegicus, UniProt P20272) | literature, multiple sources.
Please keep in mind that pKi is minus log10 of the molar concentration; only the number is needed.

Print Cannabinoid receptor 1 (Rattus norvegicus, UniProt P20272) pKi for Clc1ccc(-n2c(-c3ccc(Cl)cc3Cl)nc3c(NN4CCCCC4)ncnc32)cc1 . 8.44

GET pKi | system: Cannabinoid receptor 1 (Rattus norvegicus, UniProt P20272) | item: O=C1C(c2ccc(Br)cc2)N(c2ccc(Cl)cc2)C(=O)N1c1ccc(Cl)cc1 (centres undefined) 5.76

Identify measured pKi obtained with Cannabinoid receptor 1 (Rattus norvegicus, UniProt P20272) for CCOC(=O)/C(=C/C=C/c1ccccc1)C(=O)Oc1c(C2SCCS2)ccc2c1C=CC(C)(C)O2 . 5.86

Write down measured pKi (Cannabinoid receptor 1 (Rattus norvegicus, UniProt P20272)) for this compound. CCCCN(CC(=O)N1c2ccccc2-n2cccc2C1c1ccc(F)cc1)C(=O)C(C)Cl (centres undefined) 6.79

Fill in pKi for Cc1c(-c2cnc(C(C)C)[nH]2)nn(-c2ccc(Cl)cc2Cl)c1-c1ccc(Cl)cc1 tested with Cannabinoid receptor 1 (Rattus norvegicus, UniProt P20272). 8.14

Report its pKi with Cannabinoid receptor 1 (Rattus norvegicus, UniProt P20272) as the test system: Cc1c(C(=O)NN2CCCCC2)nn(-c2ccc(Cl)cc2Cl)c1-c1ccc(O)cc1 6.98

Fill: pKi (Cannabinoid receptor 1 (Rattus norvegicus, UniProt P20272)) for this compound Cc1c(C(=O)NN2CCCC2)nn(-c2ccc(Cl)cc2Cl)c1-c1ccc(Br)cc1 7.77

Send back Cannabinoid receptor 1 (Rattus norvegicus, UniProt P20272) pKi of Cc1c(C(=O)NC2CCCCC2)nn(-c2ccc(Cl)cc2Cl)c1-c1ccc(Br)cc1 only. 7.82
